Tested on: DU-145 prostate
Test: NCI-60 one-dose screen, 48 h (100 = growth as untreated, 0 = no growth, -100 = all killed)
Conditions: 10 µM
Method: Cells are grown in 96 well plates and exposed to the test compound for 48 hours. Compounds are tested at a single concentration, which is 10^-5 M for most compounds. The reported endpoint is percent growth (GI% or GIPRCNT), where numbers from 0 - 100% represent growth inhibition, and numbers from -100% - 0 represent cell death. For example, a value of 40 represents 60% growth inhibition. A value of 0 means no net growth occurred over the course of the experiment. […]
The panel holds about 83,000 compounds, 20% with a hit somewhere; the sample as a whole holds those more often.
Entries and their measured growth follow.
Output spec: scalar in %, unitless text.

Past entries and their recorded results:
INSERT INTO measurements (compound, meas_value) VALUES
  ('C#C[C@]1(O)CC[C@H]2[C@@H]3CC[C@H]4CC(F)(F)CC[C@]4(C)[C@H]3CC[C@@]21C', 61.2),
  ('COc1cc(/C=C/C(=O)c2cc(-c3ccc(C(F)(F)F)cc3)ccc2O)cc(OC)c1OC', 81),
  ('CCCn1c(=O)c2c(nc(-c3cccc(OCCCCl)c3)n2C)n(CCC)c1=O', 61.3);

Short answer please: growth, DU-145 prostate, entry `N=C(N)c1ccc(-c2ccc(-c3cccs3)s2)nc1`
64.4

Also, `O=C(Nc1ccc(CN2CCOCC2)cc1)c1ccc(-c2cc(Cl)ccc2Cl)o1` please.
75.4

Then what about the compound `Cc1ccccc1C1=N[C@@H](Cc2ccccc2)C(=O)c2c(nc3ccccn23)N1` ?
113

* * *

System: NCI-H322M lung
Experiment: NCI-60 one-dose screen, 48 h (100 = growth as untreated, 0 = no growth, -100 = all killed)
Details: 10 µM
About 83,000 compounds went through this panel and 20% of them were active in at least one assay; those are over-represented in the sample as a whole.
// values below are reported growth
Respond with the bare value in %.

INSERT INTO assay_data (compound, meas_value) VALUES
  ('O=C(O)CN1C(=O)C=CC1=O', 90.9),
  ('NS(=O)(=O)c1ccc(N2N=C(c3ccc(-c4ccccc4)cc3)CC2c2ccc(Cl)cc2)cc1 (stereo not drawn)', 87.6),
  ('COc1ccccc1NC1=C(N2CCCCC2)C(=O)c2ccccc2C1=O', 80.9),
  ('Cc1ccc(S(=O)(=O)N2CCc3ccccc3CC2)cc1', 99),
  ('NC(=O)C1CCCN(Cc2c[nH]c3ccccc23)C1 (stereo not drawn)', 98.5);

What does the record list as growth for `O=C1CC(c2cccc(-c3cccnc3)c2)=Nc2ccc(Br)cc2N1` ?
67.2

And what about the compound CCCCCC(CCC)COC(=O)c1ccc(OC)cc1 (stereo not drawn) ?
101

Param item: `COc1ccc(-c2nc(NC(=O)CS(=O)(=O)c3ccc(F)cc3)sc2C)cc1`
69.5

Here is the next compound: `Cc1ccc([P+](Cc2ccc([N+](=O)[O-])cc2)(c2ccc(C)cc2)c2ccc(C)cc2)cc1`
69.3

Also `COc1cc2ccnc(C=O)c2cc1OC` ?
87.5

Entry to check: `CCCCCCOc1ccc(/C=C/C(=O)c2ccc(B(O)O)cc2)cc1`
85.9

Similarly, `Oc1cc(O)c(Br)cc1Br` ?
91.8

What do you get for `CCCc1ccnc(NS(=O)(=O)c2ccc(N)cc2)n1` ?
103

* * *

growth by entry:
Tested on: T-47D breast
Test: NCI-60 one-dose screen, 48 h (100 = growth as untreated, 0 = no growth, -100 = all killed)
Conditions: 10 µM
Procedure: Growth inhibition of the T-47D human tumor cell line is measured as a screen for anti-cancer activity. Cells are grown in 96 well plates and exposed to the test compound for 48 hours. Compounds are tested at a single concentration, which is 10^-5 M for most compounds. The reported endpoint is percent growth (GI% or GIPRCNT), where numbers from 0 - 100% represent growth inhibition, and numbers from -100% - 0 represent cell death. For example, a value of 40 represents 60% growth inhibition. […]
About 83,000 compounds went through this panel and 20% of them were active in at least one assay; those are over-represented in the sample as a whole.
Enter your answer as a number in %; do not include the unit.

Use these answered entries as a reference point.
INSERT INTO measurements (compound, reading_unit, meas_value) VALUES
  ('Nc1c(C(=O)Nc2ccccc2F)sc2nc3c(cc12)C(=O)CCC3', '%', 40.2),
  ('CC1(CO)CCCC12OCCO2 (stereo unspecified)', '%', 111),
  ('CCOC(=O)c1cc2c(n1Cc1ccccc1)-c1oncc1CC2', '%', 93.8),
  ('Cc1ccc(C)c(S(=O)(=O)NC2c3ccccc3Oc3ccccc32)c1', '%', 72.1),
  ('COc1cc(Cn2c(-c3ccccc3)c(Cl)c3c2-c2oncc2CC3)cc(OC)c1', '%', 73.8);

Below: the item to evaluate.
Fill in: growth of `CCN1CCN(c2ccc(Nc3ncnc4c3nnn4CCc3cc(OC)cc(OC)c3)cc2)CC1` is ___
73.3

* * *

# growth values compiled below
Tested on: RXF 393 renal
Test: NCI-60 one-dose screen, 48 h (100 = growth as untreated, 0 = no growth, -100 = all killed)
Settings: 10 µM
Protocol: Cells are grown in 96 well plates and exposed to the test compound for 48 hours. Compounds are tested at a single concentration, which is 10^-5 M for most compounds. The reported endpoint is percent growth (GI% or GIPRCNT), where numbers from 0 - 100% represent growth inhibition, and numbers from -100% - 0 represent cell death. For example, a value of 40 represents 60% growth inhibition. A value of 0 means no net growth occurred over the course of the experiment. […]
This is part of a sample that, as a whole, favours compounds with a hit. Of some 83,000 tested, about 20% had one in any assay.
API: value field is a number in %; no unit string.

Below are worked cases with known answers.
INSERT INTO results (substance_smiles, endpoint_label, meas_value) VALUES
  ('Cc1cc(C#Cc2ccccc2)ccc1-n1c(/C=C/c2cc(O)ccc2O)nc2ccccc2c1=O', 'growth', -27.9),
  ('COc1cc2c3c(cccc3c1)C(=O)N(CCN1CCCC1)C2=O', 'growth', 10.9),
  ('CCCCCCCCCCCCc1ccc(C(=O)/C=C/C(=O)O)cc1', 'growth', 80.8),
  ('CCN(CC)CCCOC(=O)Nc1ccccc1Cl', 'growth', 109),
  ('O=C(NCCc1nccs1)c1cnc2c(S)cccc2c1', 'growth', 9.59),
  ('Fc1cc(-c2ncc(-c3cc(F)c(F)c(F)c3)c(NC3CCCCCC3)n2)cc(F)c1F', 'growth', 96.1),
  ('COc1ccc(C(=O)/C=C/c2cc(-c3ccc4c(c3)OCO4)n[nH]2)cc1OC', 'growth', 38.6),
  ('COc1ccc(-c2nc(-c3ccccc3)c(-c3ccccc3)[nH]2)cc1OC1CCCC1', 'growth', 13.7);

Find the recorded growth belonging to `CC(=O)/C(=C\c1ccc(Cl)cc1)c1ccccc1` and report it.
25.7

Try `CC(=O)Nc1nc(C)c(C(=O)N/N=C/c2cccn2C)s1` next.
119

Now the molecule `C=CCNC(=S)NN`
105

One more molecule: `CN(C)Cc1cccs1`
99.3

Likewise for `Nc1ccc2c(c1)Cc1cc(N)c(Cl)cc1-2` ?
110

* * *

Tested on: PC-3 prostate
Test: NCI-60 one-dose screen, 48 h (100 = growth as untreated, 0 = no growth, -100 = all killed)
Conditions: 10 µM
This is part of a sample that, as a whole, favours compounds with a hit. Of some 83,000 tested, about 20% had one in any assay. Calls of active or inactive are those of the source. Rule for the calls: active = growth percent below 10; inactive = the rest.
growth by entry:

INSERT INTO results (molecule, experimental_target, endpoint_label, meas_value) VALUES
  ('C[C@@H]1N=C(c2ccc(Br)cc2)Nc2nc3ccccn3c2C1=O', 'PC-3 prostate', 'growth', '63.2% (inactive)'),
  ('CC(=O)[C@H]1CC[C@H]2[C@@H]3CC[C@@H]4CC=C(C=O)C[C@]4(C)[C@H]3CC[C@]12C', 'PC-3 prostate', 'growth', '78.5% (inactive)'),
  ('CNC(=O)c1cc(Oc2ccc(NC(=O)Nc3ccc(Cl)c(OC(C)C)c3)c(F)c2)ccn1', 'PC-3 prostate', 'growth', '32.4% (inactive)');

If you can, please state the reported growth value of CCC(O)c1ccc(Br)cc1NC(=O)c1cccc(Cl)c1 (centres undefined) .
34.2% (inactive)

* * *

System: SK-MEL-2 melanoma
Test: NCI-60 one-dose screen, 48 h (100 = growth as untreated, 0 = no growth, -100 = all killed)
Conditions: 10 µM
About 83,000 compounds went through this panel and 20% of them were active in at least one assay; those are over-represented in the sample as a whole.
endpoint label: growth (%)
Lab book: enter the figure in %, no units written.

Observe how each entry below is paired with its result.
INSERT INTO results (compound, meas_value) VALUES
  ('CNC(=O)c1cc(Oc2ccc(NC(=O)Nc3ccc(Cl)c(OC4CCCCC4)c3)c(F)c2)ccn1', 55.3),
  ('CC1(C)CC(OCCCC[P+](c2ccccc2)(c2ccccc2)c2ccccc2)CC(C)(C)N1O', -23.4),
  ('CCOC(=O)CSC(=S)SCC(=O)OCC', 96.7);

Give the measured growth of `CCOc1nc(-c2ccccc2)cc2c(O)c(C(=O)NC(C)C)[nH]c(=O)c12` .
126

Could you do the same for `COc1cc(-c2cc(/C=C/C(C)=O)[nH]n2)cc(OC)c1OC` , please?
87.2

Now consider Cc1cc2cc3c(=O)[nH]c(=O)cc-3n(CC(O)C(O)C(O)CO)c2cc1C (stereo not given) .
120

And the next one, CCCOCC(O)CNCCN (stereo not given) ?
116

Now the same for NC1CCC(Nc2nc(NCc3ccc(-c4cccs4)nc3)c3ncn(C4CCCC4)c3n2)CC1 (stereo not given)
-76.8

How about this compound: `O=C(COc1ccc(Cl)cc1Cl)Oc1coc(CSc2nc3ccccc3s2)cc1=O`
94.5

Further, for `CC1(C)CNC(=O)N1` ?
98.8
